- system: Lysine-specific demethylase 4E (Homo sapiens, UniProt B2RXH2)
- Sequence (B2RXH2 whole entry): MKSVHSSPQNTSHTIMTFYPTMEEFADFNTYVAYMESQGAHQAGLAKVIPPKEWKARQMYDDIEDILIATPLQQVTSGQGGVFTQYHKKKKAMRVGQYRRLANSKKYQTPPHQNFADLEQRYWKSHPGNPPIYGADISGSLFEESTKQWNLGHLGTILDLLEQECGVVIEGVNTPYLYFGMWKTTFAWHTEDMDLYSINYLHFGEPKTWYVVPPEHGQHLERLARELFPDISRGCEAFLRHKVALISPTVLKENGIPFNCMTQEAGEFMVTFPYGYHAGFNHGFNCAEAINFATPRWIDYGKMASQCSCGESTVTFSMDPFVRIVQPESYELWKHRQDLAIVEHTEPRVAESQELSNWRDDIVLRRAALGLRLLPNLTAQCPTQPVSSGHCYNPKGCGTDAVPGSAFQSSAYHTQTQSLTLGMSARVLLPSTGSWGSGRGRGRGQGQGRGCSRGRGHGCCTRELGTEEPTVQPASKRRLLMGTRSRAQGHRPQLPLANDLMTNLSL
outcome.measure: pIC50
Convention used: pIC50 is expressed as -log10 of the molar concentration.

Prompt: May I ask what pIC50 has been recorded for "O=C(O)c1cccc(C(=O)O)n1" ?
Completion: 3.60

###

- system: Alpha-ketoglutarate-dependent dioxygenase FTO (Homo sapiens)
- Sequence (Q9C0B1 whole entry): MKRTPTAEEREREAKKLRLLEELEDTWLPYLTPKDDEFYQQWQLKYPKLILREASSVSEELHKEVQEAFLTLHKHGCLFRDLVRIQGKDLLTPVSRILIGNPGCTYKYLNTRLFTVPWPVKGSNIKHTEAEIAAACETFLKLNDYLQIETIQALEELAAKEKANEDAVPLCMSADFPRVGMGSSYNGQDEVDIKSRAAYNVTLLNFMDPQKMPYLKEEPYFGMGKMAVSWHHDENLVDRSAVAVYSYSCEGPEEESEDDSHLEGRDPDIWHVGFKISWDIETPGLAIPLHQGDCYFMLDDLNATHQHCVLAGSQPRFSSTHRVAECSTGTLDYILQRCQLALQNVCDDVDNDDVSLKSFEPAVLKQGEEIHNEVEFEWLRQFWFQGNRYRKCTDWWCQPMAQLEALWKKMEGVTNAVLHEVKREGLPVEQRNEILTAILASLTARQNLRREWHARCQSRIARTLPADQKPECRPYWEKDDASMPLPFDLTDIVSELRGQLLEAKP
- experiment: Inhibition of FTO (unknown origin) demethylation activity using m6A7-Broccoli RNA as substrate incubated for 3 mins under shaking condition and measured after 2 hrs by fluorescence based analysis
outcome.measure: IC50

Consider the reported IC50 for these molecules:
- molecule: "N=C1Sc2ccccc2C2=NCCCN12"
  system: "Alpha-ketoglutarate-dependent dioxygenase FTO (Homo sapiens)"
  IC50: "2180 nM"
- molecule: "Oc1nc2cc(Cl)c(Cl)cc2nc1O [2,3-DIHYDROXY-6,7-DICHLOROQUINOXALINE]"
  system: "Alpha-ketoglutarate-dependent dioxygenase FTO (Homo sapiens)"
  IC50: "4970 nM"
- molecule: "COc1cc2ncnc(Nc3cccc(Cl)c3)c2cc1OC [TYRPHOSTIN AG-1478]"
  system: "Alpha-ketoglutarate-dependent dioxygenase FTO (Homo sapiens)"
  IC50: "3000 nM"

Prompt: What value of IC50 has been recorded for this entry: CN(C)[C@@H]1C(O)=C(C(N)=O)C(=O)[C@@]2(O)C(O)=C3C(=O)c4c(O)ccc(Cl)c4[C@@H](O)[C@H]3C[C@@H]12 [DEMECLOCYCLINE]
Completion: 1390 nM

Prompt: Subsequent entry: O=c1c(O)c(-c2ccc(O)cc2O)oc2cc(O)cc(O)c12 [MORIN]
Completion: 2580 nM

Prompt: And "Cc1cccc2c3ccccc3n(C)c12" ?
Completion: 1230 nM

Prompt: Next up: Cc1cc(O)c2c(c1)C(=O)c1cc(O)cc(O)c1C2=O [EMODIN]
Completion: 4530 nM

Prompt: Now consider "N[C@H](CCCCCP(=O)(O)O)C(=O)O" and answer again.
Completion: 850 nM

Prompt: Param item: "N#CSc1ccc2oc(C3=NCCN3)cc2c1"
Completion: 1620 nM
